Target: ovine COX-2 (Ovis aries)
RECORDED_ENDPOINT: IC50 (µM)
Form entry: value (µM) — number only.

>  <STRUCTURE_AS_SMILES>
COc1ccc(-n2cc(C(=O)c3ccc4ccccc4c3O)cc(C#N)c2=O)cc1

>  <REPORTED>
0.53

$$$$
>  <STRUCTURE_AS_SMILES>
O=C(C1=CNC(=S)NN=C1)c1ccc2ccccc2c1O

>  <REPORTED>
1.24

$$$$
>  <STRUCTURE_AS_SMILES>
O=C(C1=CSc2ccccc2N=C1)c1ccc2ccccc2c1O

>  <REPORTED>
0.754

$$$$
>  <STRUCTURE_AS_SMILES>
N#Cc1cc(C(=O)c2ccc3ccccc3c2O)cn(-c2ccc([N+](=O)[O-])cc2)c1=O

>  <REPORTED>
1.68

$$$$

Please find the next compound below.
Qu. Observed IC50 on ovine COX-2 (Ovis aries) for `N#Cc1cc(C(=O)c2ccc3ccccc3c2O)cn(-c2ccc(Br)cc2)c1=O` , please.
Ans. 1.46

###

Test system: Mycobacterium tuberculosis (RCMB 010126)
Property: log10 MIC; scope: individual compounds
All values: log10 MIC [µg/mL].

Qu. Observed log10 MIC on Mycobacterium tuberculosis (RCMB 010126) for O=c1c(C=Nc2nc3ccccc3s2)coc2c1ccc1ccccc12 [Compound 12b] , please.
Ans. 1.19

Qu. Observed log10 MIC on Mycobacterium tuberculosis (RCMB 010126) for `N#CCC(=O)NN=Cc1coc2c(ccc3ccccc32)c1=O` , please.
Ans. 0.59

Qu. Observed log10 MIC on Mycobacterium tuberculosis (RCMB 010126) for CCOC1Oc2c(ccc3ccccc23)-c2n[nH]cc21 (stereo not drawn) , please.
Ans. 0.89

Qu. Observed log10 MIC on Mycobacterium tuberculosis (RCMB 010126) for `Cc1cnc(-n2cc(C(=O)c3ccc4ccccc4c3O)cc(C#N)c2=O)s1` , please.
Ans. 0.59

Qu. Observed log10 MIC on Mycobacterium tuberculosis (RCMB 010126) for `O=C(C1=CSc2ccccc2N=C1)c1ccc2ccccc2c1O` , please.
Ans. 0.89

Qu. Observed log10 MIC on Mycobacterium tuberculosis (RCMB 010126) for Cc1c(N=Cc2coc3c(ccc4ccccc43)c2=O)c(=O)n(-c2ccccc2)n1C [Compound 12a] , please.
Ans. 1.80

Qu. Observed log10 MIC on Mycobacterium tuberculosis (RCMB 010126) for `Cc1ccc(-n2cc(C(=O)c3ccc4ccccc4c3O)cc(C#N)c2=O)cc1` , please.
Ans. 0.59

Qu. Observed log10 MIC on Mycobacterium tuberculosis (RCMB 010126) for NNC(=O)c1ccncc1 [IN, Isoniazid, reference compound] , please.
Ans. -0.62

###

Target: ovine COX-2 (Ovis aries, UniProt P79208)
Assay: COX-2 inhibition enzyme immunoassay
Type: biochemical
Conditions: COX-1 IC50/COX-2 IC50
Please note: 1.0 applies when Selectivity index (SI) is 1000 or greater, and 0.0 applies otherwise.

Reference set, count: 3
>  <COMPOUND>
COc1ccc(-n2cc(C(=O)c3ccc4ccccc4c3O)cc(C#N)c2=O)cc1 [Compound 3c]

>  <LABEL_CLASS>
1.0

$$$$
>  <COMPOUND>
Cc1cnc(-n2cc(C(=O)c3ccc4ccccc4c3O)cc(C#N)c2=O)s1 [Compound 3g]

>  <LABEL_CLASS>
0.0

$$$$
>  <COMPOUND>
O=C(c1cnc2[nH]nc(O)c2c1)c1ccc2ccccc2c1O [Compound 6]

>  <LABEL_CLASS>
0.0

$$$$

Qu. Hi team, for N#Cc1cc(C(=O)c2ccc3ccccc3c2O)cn(-c2ccc([N+](=O)[O-])cc2)c1=O [Compound 3e] , is the recorded Selectivity index (SI) at or above 1000?
Ans. 0.0

Qu. Hi team, for Cc1c(-n2cc(C(=O)c3ccc4ccccc4c3O)cc(C#N)c2=O)c(=O)n(-c2ccccc2)n1C [Compound 3f] , is the recorded Selectivity index (SI) at or above 1000?
Ans. 0.0

Qu. Hi team, for O=C(C1=CSc2ccccc2N=C1)c1ccc2ccccc2c1O [Compound 8] , is the recorded Selectivity index (SI) at or above 1000?
Ans. 1.0

Qu. Hi team, for N#Cc1cc(C(=O)c2ccc3ccccc3c2O)cn(-c2nc3ccccc3s2)c1=O [Compound 3h] , is the recorded Selectivity index (SI) at or above 1000?
Ans. 1.0

###

Biological target: ovine COX-2 (Ovis aries, UniProt P79208)
Sequence (P79208 17-603): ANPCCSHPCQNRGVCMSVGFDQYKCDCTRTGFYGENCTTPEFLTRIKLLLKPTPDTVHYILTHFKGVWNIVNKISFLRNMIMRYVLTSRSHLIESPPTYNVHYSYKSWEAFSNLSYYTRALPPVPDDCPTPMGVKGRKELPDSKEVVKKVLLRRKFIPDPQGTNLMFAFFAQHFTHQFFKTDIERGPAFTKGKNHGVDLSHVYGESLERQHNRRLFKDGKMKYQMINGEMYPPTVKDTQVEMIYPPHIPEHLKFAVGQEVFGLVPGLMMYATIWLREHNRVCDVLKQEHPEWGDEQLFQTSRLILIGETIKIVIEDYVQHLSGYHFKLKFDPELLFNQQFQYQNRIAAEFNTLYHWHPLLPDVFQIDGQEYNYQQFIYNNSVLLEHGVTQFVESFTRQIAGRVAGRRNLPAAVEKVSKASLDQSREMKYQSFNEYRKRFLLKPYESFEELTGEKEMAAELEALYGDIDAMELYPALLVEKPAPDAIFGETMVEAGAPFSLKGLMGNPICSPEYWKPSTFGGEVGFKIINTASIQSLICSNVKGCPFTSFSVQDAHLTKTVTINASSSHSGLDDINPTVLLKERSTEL
Property: IC50; scope: individual compounds
Form entry: value (µM) — number only.

Sample records with IC50:
>  <COMPOUND>
Cc1c(-n2cc(C(=O)c3ccc4ccccc4c3O)cc(C#N)c2=O)c(=O)n(-c2ccccc2)n1C

>  <IC50 / µM>
16.4

$$$$
>  <COMPOUND>
CCOC1Oc2c(ccc3ccccc23)-c2n[nH]cc21 (centres unmarked)

>  <IC50 / µM>
1.01

$$$$
>  <COMPOUND>
Cc1ccc(-n2cc(C(=O)c3ccc4ccccc4c3O)cc(C#N)c2=O)cc1

>  <IC50 / µM>
6.05

$$$$
>  <COMPOUND>
Cc1c(N=Cc2coc3c(ccc4ccccc43)c2=O)c(=O)n(-c2ccccc2)n1C [Compound 12a]

>  <IC50 / µM>
24.7

$$$$

Qu. Looking for the measured IC50 of `Cc1cnc(-n2cc(C(=O)c3ccc4ccccc4c3O)cc(C#N)c2=O)s1` , can you help?
Ans. 48

###

Molecular target: ovine COX-2 (Ovis aries)
Sequence (P79208 17-603): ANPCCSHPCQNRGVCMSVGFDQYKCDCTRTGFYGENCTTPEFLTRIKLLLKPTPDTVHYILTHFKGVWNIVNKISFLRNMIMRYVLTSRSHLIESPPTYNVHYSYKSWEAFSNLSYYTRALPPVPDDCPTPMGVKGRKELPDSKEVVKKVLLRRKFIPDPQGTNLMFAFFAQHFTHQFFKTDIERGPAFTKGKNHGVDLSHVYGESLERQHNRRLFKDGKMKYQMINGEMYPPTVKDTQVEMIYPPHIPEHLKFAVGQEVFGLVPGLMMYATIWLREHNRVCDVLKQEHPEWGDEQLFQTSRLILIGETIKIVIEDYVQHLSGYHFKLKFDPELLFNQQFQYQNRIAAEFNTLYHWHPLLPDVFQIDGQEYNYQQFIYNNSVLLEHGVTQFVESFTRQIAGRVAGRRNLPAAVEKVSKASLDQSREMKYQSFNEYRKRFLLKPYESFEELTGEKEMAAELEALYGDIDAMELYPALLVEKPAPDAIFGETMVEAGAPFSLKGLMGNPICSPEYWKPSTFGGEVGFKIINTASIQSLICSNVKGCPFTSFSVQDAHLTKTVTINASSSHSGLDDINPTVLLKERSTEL
Property: pIC50; scope: individual compounds
Remember the convention: pIC50 equals -log10 of concentration in molar.

Sample records with pIC50:
>  <COMPOUND>
N#Cc1cc(C(=O)c2ccc3ccccc3c2O)cn(-c2nc3ccccc3s2)c1=O

>  <REPORTED>
6.30

$$$$
>  <COMPOUND>
O=c1c(C=Nc2nc3ccccc3s2)coc2c1ccc1ccccc12 [Compound 12b]

>  <REPORTED>
5.86

$$$$
>  <COMPOUND>
O=C(c1cnc2[nH]nc(O)c2c1)c1ccc2ccccc2c1O

>  <REPORTED>
4.52

$$$$
>  <COMPOUND>
N#CCC(=O)NN=Cc1coc2c(ccc3ccccc32)c1=O

>  <REPORTED>
4.61

$$$$

Please find the next compound below.
Qu. Looking for the measured pIC50 of `CC(=Nn1cc(C(=O)c2ccc3ccccc3c2O)cc(C#N)c1=O)c1cc2ccccc2oc1=O` , can you help?
Ans. 4.87
